Assay: AUC (0 to t) in Sprague-Dawley rat at 1 mg/kg, iv by LC-MS/MS analysis
Type: ADME, organism-based
Details: in vivo
property_measured: AUC(0-t)

INSERT INTO measurements (compound_structure_string, property_measured, result) VALUES
  ('O=C(Nc1cc(C(F)(F)F)cc(C(F)(F)F)c1)N[C@@H](Cc1ccccc1)Cn1c[n+](Cc2ccc3ccccc3c2)c2ccccc21.[Br-]', 'AUC(0-t)', '1040 ng·h/mL');

###

Molecular target: Mitogen-activated protein kinase 1 (Homo sapiens, UniProt P28482)
Sequence (P28482 whole entry): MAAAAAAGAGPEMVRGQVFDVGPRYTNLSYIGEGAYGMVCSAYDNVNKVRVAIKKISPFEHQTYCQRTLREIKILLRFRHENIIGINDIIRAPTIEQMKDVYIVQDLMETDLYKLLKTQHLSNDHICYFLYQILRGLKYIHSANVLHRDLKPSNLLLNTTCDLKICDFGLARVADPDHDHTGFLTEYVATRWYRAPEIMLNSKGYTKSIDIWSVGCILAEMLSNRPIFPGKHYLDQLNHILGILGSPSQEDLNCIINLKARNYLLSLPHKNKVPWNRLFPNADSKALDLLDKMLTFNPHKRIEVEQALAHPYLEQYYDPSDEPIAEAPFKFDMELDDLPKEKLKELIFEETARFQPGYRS
Test: Inhibition of ERK2 (unknown origin) incubated for 60 mins by luminescence based ADP-Glo kinase assay
pIC50: −log10 of the molar value.
property_measured: pIC50

INSERT INTO measurements (compound_structure_string, comparison_operator, readout_number) VALUES
  ('O=C(Nc1cc(C(F)(F)F)cc(C(F)(F)F)c1)N[C@@H](Cc1ccccc1)Cn1c[n+](Cc2ccccc2C(F)(F)F)c2ccccc21', '=', 6.60),
  ('COc1cccc(C[n+]2cn(C[C@H](Cc3ccccc3)NC(=O)Nc3cc(C(F)(F)F)cc(C(F)(F)F)c3)c3ccccc32)c1', '=', 6.61),
  ('O=C(Nc1cc(C(F)(F)F)cc(C(F)(F)F)c1)N[C@@H](Cc1ccccc1)Cn1c[n+](Cc2ccc3cccnc3c2)c2ccccc21', '=', 6.43),
  ('O=C(Nc1cc(C(F)(F)F)cc(C(F)(F)F)c1)N[C@@H](Cc1ccccc1)Cn1c[n+](Cc2cc(Cl)ccc2Cl)c2ccccc21', '=', 6.71),
  ('O=C(Nc1cc(C(F)(F)F)cc(C(F)(F)F)c1)N[C@@H](Cc1ccccc1)Cn1c[n+](Cc2ccccc2Br)c2ccccc21', '=', 6.63),
  ('N#Cc1ccc(C[n+]2cn(C[C@H](Cc3ccccc3)NC(=O)Nc3cc(C(F)(F)F)cc(C(F)(F)F)c3)c3ccccc32)cc1', '=', 6.41),
  ('O=C(Nc1ccc(Cl)cc1)N[C@@H](Cc1ccccc1)Cn1c[n+](Cc2ccc3ccccc3c2)c2ccccc21', '=', 6.60),
  ('O=C(N[C@@H](Cc1ccccc1)Cn1cnc2ccccc21)c1ccccc1', '<', 5.00),
  ('Cc1ccc(NC(=O)N[C@@H](Cc2ccccc2)Cn2c[n+](Cc3ccc4ccccc4c3)c3ccccc32)cc1', '=', 6.40),
  ('N#Cc1ccccc1C[n+]1cn(C[C@H](Cc2ccccc2)NC(=O)Nc2cc(C(F)(F)F)cc(C(F)(F)F)c2)c2ccccc21', '=', 6.38),
  ('O=C(Nc1cc(C(F)(F)F)cc(C(F)(F)F)c1)N[C@@H](Cc1ccccc1)Cn1c[n+](Cc2ccccc2Cl)c2ccccc21', '=', 6.63),
  ('O=C(Nc1cc(C(F)(F)F)cc(C(F)(F)F)c1)N[C@@H](Cc1ccccc1)Cn1c[n+](C/C=C/c2ccccc2)c2ccccc21', '=', 6.63),
  ('CC[C@@H](C)[C@@H](Cn1cc[n+](Cc2ccccc2)c1)NC(=O)Nc1cc(C(F)(F)F)cc(C(F)(F)F)c1', '=', 6.32),
  ('O=C(Nc1cc(C(F)(F)F)cc(C(F)(F)F)c1)N[C@@H](Cc1ccccc1)Cn1c[n+](Cc2cccc(Br)c2)c2ccccc21', '=', 6.77),
  ('N#Cc1cccc(C[n+]2cn(C[C@H](Cc3ccccc3)NC(=O)Nc3cc(C(F)(F)F)cc(C(F)(F)F)c3)c3ccccc32)c1', '=', 6.48),
  ('C=CC[n+]1cn(C[C@H](Cc2ccccc2)NC(=O)Nc2cc(C(F)(F)F)cc(C(F)(F)F)c2)c2ccccc21', '<', 5.00),
  ('CC[C@@H](C)[C@@H](Cn1cc[n+](Cc2ccccc2)c1C)NC(=O)Nc1cc(C(F)(F)F)cc(C(F)(F)F)c1', '=', 6.39),
  ('Cc1n(C[C@@H](NC(=O)Nc2cc(C(F)(F)F)cc(C(F)(F)F)c2)C(C)C)cc[n+]1Cc1ccccc1', '=', 6.27);

Source of measurements: ChEMBL document CHEMBL6153138
